# MEASUREMENT_TARGET: Heat shock factor protein 1 (Homo sapiens)
# Sequence (whole entry): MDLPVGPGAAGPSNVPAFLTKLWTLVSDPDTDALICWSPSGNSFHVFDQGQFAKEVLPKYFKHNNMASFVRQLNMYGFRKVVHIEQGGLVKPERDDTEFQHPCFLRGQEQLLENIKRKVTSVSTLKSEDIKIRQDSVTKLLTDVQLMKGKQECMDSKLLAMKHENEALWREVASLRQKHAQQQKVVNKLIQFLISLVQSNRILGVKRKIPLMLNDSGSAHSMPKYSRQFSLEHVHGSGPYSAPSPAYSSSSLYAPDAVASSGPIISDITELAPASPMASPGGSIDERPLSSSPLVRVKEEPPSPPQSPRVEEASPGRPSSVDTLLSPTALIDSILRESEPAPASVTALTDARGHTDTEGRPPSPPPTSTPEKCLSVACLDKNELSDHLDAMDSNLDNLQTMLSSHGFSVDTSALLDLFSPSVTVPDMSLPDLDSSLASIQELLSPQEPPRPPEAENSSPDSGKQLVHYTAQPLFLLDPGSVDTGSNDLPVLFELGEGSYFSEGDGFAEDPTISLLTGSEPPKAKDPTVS
# PROTOCOL_NOTES: Activation of Hsf1 in human MSC-NEU cells assessed as induction of HSP70 accumulation at 1 uM incubated for 24 hrs by Western blotting analysis relative to control
# Format: cell-based
# CONDITION_PARAMETERS: MSC-NEU cell, filed as activator
EXPERIMENTAL_ENDPOINT: fold change (FC)
Lab note: record just the number, no unit beside it.

Record excerpt, results attached:
[
  {
    "SMILES_CODE": "O=c1[nH]c2ccccc2nc1-c1ccc(-c2ccccc2)[nH]1",
    "fold change (FC)": 1.6
  },
  {
    "SMILES_CODE": "Brc1ccc2[nH]cc(-c3ncnc4ccccc34)c2c1",
    "fold change (FC)": 1.9
  },
  {
    "SMILES_CODE": "C[n+]1c2ccccc2c(-c2c[nH]c3ccc(O)cc23)c2ccccc21.[I-]",
    "fold change (FC)": 2.2
  }
]

Shifting focus to the compound that follows.
The value of fold change (FC) measured for the compound `Clc1nccc(-c2c[nH]c3ccc(Br)cc23)n1` turned out to be 2.7

====

Reported fold change (FC) is given for each of the following compounds.
# PROTOCOL_NOTES: Inhibition of amyloid beta (1 to 42)-induced cellular senescence in human MSC-NEU cells assessed as reduction in beta-galactosidase activity at 1 uM measured after 48 hrs by X-Gal staining based analysis relative to control
# Format: functional, MSC-NEU cell
Respond with the number and no other words.

Query `Clc1nccc(-c2c[nH]c3ccc(Br)cc23)n1` yields fold change (FC) of 1.17

Given item `C[n+]1c2ccccc2c(-c2c[nH]c3ccc(O)cc23)c2ccccc21.[I-]` , the value recorded as its fold change (FC) is 1.22

response.value for `Brc1ccc2[nH]cc(-c3ncnc4ccccc34)c2c1` (field: fold change (FC)) = 1.04

Entry `O=c1[nH]c2ccccc2nc1-c1ccc(-c2ccccc2)[nH]1` — recorded fold change (FC) = 1.12
